System: Fer (mouse);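 note: 11-residue human phosphosite peptides and single-mutation variants displayed on the E. coli surface, counted by deep sequencing, each peptide's frequency after selection divided by its frequency in the unselected input library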;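 note: frequency after pTyr selection over input frequency; kinase dosed for 20-30% of maximal phosphorylation in three min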
Procedure summary: phosphorylation enrichment, bacterial display (enrichment ratio); higher = better substrate or ligand; peptides without Tyr show the background
In this section we review reported phosphorylation enrichment values for a set of sequences.
The reply should be a number, written without any unit.

{"Residue codes": "RMSQRYRDVLQ [CYP1A2_Y72_G73R]", "phosphorylation enrichment": 0.396}
{"Residue codes": "EKIANYKEGTF [CLRN1_Y171_YF]", "phosphorylation enrichment": 0.408}
{"Residue codes": "QNTGNYFDLFG [PTPN11_Y62_D61N_YF]", "phosphorylation enrichment": 0.925}
{"Residue codes": "IPGRFYETGSI [PAX2_Y73_L69P_YF]", "phosphorylation enrichment": 0.357}

Consider the sequence HPFHVYSQPGM [BAG3_Y114_P115S] and give its measured phosphorylation enrichment.
0.719

These entries and their values trace back to the supplement of paper PMC10065799.
